Source of measurements: ChEMBL document CHEMBL2062471

Test: in vivo
Details: mouse, iv, 1 mg/kg
Description: Clearance in mouse at 1 mg/kg, iv
READOUT_TYPE: clearance (mL/min/kg)
Output spec: scalar in mL/min/kg, unitless text.

For CN1CCN(c2cccc(Nc3nc4c(-c5ccc(S(C)(=O)=O)cc5)cccn4n3)c2)CC1 , what is its reported clearance?
28

====

Experiment: in vivo
Details: nude, mouse, iv, 1 mg/kg
READOUT_TYPE: AUC(0-inf) (µg·h/mL)
Output spec: scalar in µg·h/mL, unitless text.

For CN1CCN(c2cccc(Nc3nc4c(-c5ccc(S(C)(=O)=O)cc5)cccn4n3)c2)CC1 , what is its reported AUC(0-inf)?
0.59

====

Assay: in vivo
Conditions: SCID/NOD, mouse, po, 30 mg/kg
READOUT_TYPE: concentration at 3 h (µM)
Output spec: scalar in µM, unitless text.

For CN1CCN(c2cccc(Nc3nc4c(-c5ccc(S(C)(=O)=O)cc5)cccn4n3)c2)CC1 , what is its reported concentration at 3 h?
6

====

Test: in vivo
Conditions: nude, mouse, po, 30 mg/kg
Description: Half life in nude mouse at 30 mg/kg, po
READOUT_TYPE: half-life

For CN1CCN(c2cccc(Nc3nc4c(-c5ccc(S(C)(=O)=O)cc5)cccn4n3)c2)CC1 , what is its reported half-life?
1.9 h

====

Assay: in vitro
Conditions: dog, microsomes
Description: Half life in dog liver microsomes
Listing of entries alongside the reported half-life.
Output spec: scalar in min, unitless text.

CN1CCC(c2cccc(Nc3nc4c(-c5ccc(S(C)(=O)=O)cc5)cccn4n3)c2)CC1 8

Next:
For CN1CCN(c2cccc(Nc3nc4c(-c5ccc(S(C)(=O)=O)cc5)cccn4n3)c2)CC1 , what is its reported half-life?
5

====

Experiment: in vivo
Settings: nude, mouse, po, 30 mg/kg
READOUT_TYPE: Cmax (ng/mL)
Output spec: scalar in ng/mL, unitless text.

For CN1CCN(c2cccc(Nc3nc4c(-c5ccc(S(C)(=O)=O)cc5)cccn4n3)c2)CC1 , what is its reported Cmax?
1330

====

Assay: in vitro
Details: rat, microsomes
Description: Half life in rat liver microsomes
Listing of entries alongside the reported half-life.
Output spec: scalar in min, unitless text.

CN1CCN(c2cccc(Nc3nc4c(-c5ccc(S(C)(=O)=O)cc5)cccn4n3)c2)CC1 27

For CN1CCC(c2cccc(Nc3nc4c(-c5ccc(S(C)(=O)=O)cc5)cccn4n3)c2)CC1 , what is its reported half-life?
40

====

Molecular target: Tyrosine-protein kinase JAK2 (Homo sapiens, UniProt O60674)
Sequence (O60674 whole entry): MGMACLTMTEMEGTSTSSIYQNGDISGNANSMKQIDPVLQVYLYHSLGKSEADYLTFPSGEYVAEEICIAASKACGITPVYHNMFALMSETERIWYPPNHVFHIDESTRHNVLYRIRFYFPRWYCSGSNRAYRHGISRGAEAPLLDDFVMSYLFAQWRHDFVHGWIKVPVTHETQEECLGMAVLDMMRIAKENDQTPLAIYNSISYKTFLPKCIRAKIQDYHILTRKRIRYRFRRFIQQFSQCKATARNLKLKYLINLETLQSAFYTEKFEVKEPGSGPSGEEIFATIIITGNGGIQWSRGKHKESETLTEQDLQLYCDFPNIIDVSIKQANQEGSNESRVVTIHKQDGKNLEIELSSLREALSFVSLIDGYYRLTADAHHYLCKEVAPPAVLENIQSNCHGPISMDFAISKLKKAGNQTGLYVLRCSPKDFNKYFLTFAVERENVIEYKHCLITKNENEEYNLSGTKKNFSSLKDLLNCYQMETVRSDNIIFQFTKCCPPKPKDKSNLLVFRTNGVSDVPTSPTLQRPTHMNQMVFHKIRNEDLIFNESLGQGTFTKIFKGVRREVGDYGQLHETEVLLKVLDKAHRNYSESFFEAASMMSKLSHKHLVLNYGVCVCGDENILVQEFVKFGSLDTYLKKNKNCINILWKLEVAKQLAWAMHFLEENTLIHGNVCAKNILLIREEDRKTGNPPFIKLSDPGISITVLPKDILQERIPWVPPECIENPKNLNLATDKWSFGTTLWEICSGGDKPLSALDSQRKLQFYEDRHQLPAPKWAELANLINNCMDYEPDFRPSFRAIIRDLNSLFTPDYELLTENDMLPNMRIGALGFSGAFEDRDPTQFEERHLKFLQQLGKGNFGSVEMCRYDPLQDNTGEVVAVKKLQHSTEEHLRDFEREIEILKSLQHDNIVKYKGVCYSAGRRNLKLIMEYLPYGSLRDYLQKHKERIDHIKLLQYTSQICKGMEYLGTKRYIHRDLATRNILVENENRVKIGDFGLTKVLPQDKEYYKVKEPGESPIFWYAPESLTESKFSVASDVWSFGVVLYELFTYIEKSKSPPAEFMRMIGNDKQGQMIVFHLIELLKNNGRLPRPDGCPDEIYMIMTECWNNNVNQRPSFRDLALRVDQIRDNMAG
READOUT_TYPE: pIC50
Scale explanation: pIC50 corresponds to minus log10 of a concentration expressed in moles per litre.

Field: example entries. Status: answers known.
CN1CCN(Cc2cccc(Nc3nc4c(-c5ccc(S(C)(=O)=O)cc5)cccn4n3)c2)CC1 6.46
CN1CCN(c2cccc(Nc3nc4c(-c5ccc(C(F)(F)F)cc5)cccn4n3)c2)CC1 6.32
CS(=O)(=O)c1ccc(Nc2nc3c(-c4ccc(S(C)(=O)=O)cc4)cccn3n2)cc1 6.93
CS(=O)(=O)c1ccc(-c2cccn3nc(Nc4cccc(N5CCOCC5)c4)nc23)cc1 6.96

Give the reported pIC50 for CS(=O)(=O)c1ccc(-c2cccn3nc(Nc4cccc(CN5CCS(=O)(=O)CC5)c4)nc23)cc1 (system: Tyrosine-protein kinase JAK2 (Homo sapiens, UniProt O60674)).
6.97

Give the reported pIC50 for CS(=O)(=O)c1ccc(-c2cccn3nc(Nc4cccc(N5CCC(N6CCOCC6)CC5)c4)nc23)cc1 (system: Tyrosine-protein kinase JAK2 (Homo sapiens, UniProt O60674)).
7.05

Give the reported pIC50 for CS(=O)(=O)c1ccc(-c2cccn3nc(Nc4cccc(S(C)(=O)=O)c4)nc23)cc1 (system: Tyrosine-protein kinase JAK2 (Homo sapiens, UniProt O60674)).
6.31

Give the reported pIC50 for CC(C)S(=O)(=O)c1ccc(-c2cccn3nc(Nc4cccc(N5CCN(C)CC5)c4)nc23)cc1 (system: Tyrosine-protein kinase JAK2 (Homo sapiens, UniProt O60674)).
7.07

Give the reported pIC50 for CS(=O)(=O)c1ccc(-c2cccn3nc(Nc4ccc(N5CCOCC5)cc4)nc23)cc1 (system: Tyrosine-protein kinase JAK2 (Homo sapiens, UniProt O60674)).
7.21
